The origin of these recorded values is patent US12295938B2.

# Tested on: AR transcriptional activity
# test-protocol: MMTV-LUC luciferase reporter assay in 22RV1 cells, DHT+ (screening and IC50)
# Format: cell-based
# condition-context: Homo sapiens, 10 uM, with DHT, control = 100
# maps each entry to its activity at 10 µM
Numbers only; they are read as %.

Example molecules with recorded activity at 10 µM:
molecule: CC(=O)O[C@H](CC=C(C)C)C1=CC(=O)c2c(O)ccc(O)c2C1=O
subject-of-test: AR transcriptional activity
measured-attribute: activity at 10 µM
value-observed: 17.7
//
molecule: C[C@H]1[C@@H](O)O[C@@H]2O[C@@]3(C)CC[C@H]4[C@H](C)CC[C@@H]1[C@@]24OO3 [Dihydroartemisinin]
subject-of-test: AR transcriptional activity
measured-attribute: activity at 10 µM
value-observed: 138
//
molecule: CC(=O)Oc1cccc2c1C(=O)c1c(OC(C)=O)cc(C(=O)O)cc1C2=O
subject-of-test: AR transcriptional activity
measured-attribute: activity at 10 µM
value-observed: 98.5
//
molecule: C[C@@H]1CC[C@H]2[C@@H](C)C(=O)O[C@@H]3O[C@@]4(C)CC[C@@H]1[C@]32OO4
subject-of-test: AR transcriptional activity
measured-attribute: activity at 10 µM
value-observed: 156

Q: # returns recorded activity at 10 µM (system: AR transcriptional activity) for O=C(CCc1ccc(O)cc1)c1c(O)cc(O)cc1O[C@@H]1O[C@H](CO)[C@@H](O)[C@H](O)[C@H]1O
Ans: 184

* * *

# Tested on: AR transcriptional activity
# test-protocol: MMTV-LUC luciferase reporter assay in 22RV1 cells, DHT+ (screening and IC50)
# Type: cell-based
# condition-context: 10 uM, with DHT, control = 100
measured-attribute: MMTV-LUC activity (%) DHT+
Numbers only; they are read as %.

Example molecules with recorded MMTV-LUC activity (%) DHT+:
molecule: C=CC(C)(C)c1cc(/C=C/C(=O)c2ccc(O)cc2)c(OC)cc1O
subject-of-test: AR transcriptional activity
MMTV-LUC activity (%) DHT+: 235.6

molecule: CC1CCCC=CC(=O)c2c(O)cc(O)cc2CC(=O)O1 (stereo not shown) [10,11-Dehydrocurvularin]
subject-of-test: AR transcriptional activity
MMTV-LUC activity (%) DHT+: 5.5

molecule: CC1=CC(=O)[C@@H](O)[C@]2(C)[C@H]3[C@@H](O)[C@H](O)[C@]4(CO)OC[C@@]35[C@@H](C[C@@H]12)OC(=O)[C@H](O)[C@]54O [Yadanziolide A]
subject-of-test: AR transcriptional activity
MMTV-LUC activity (%) DHT+: 4.1

Q: # returns recorded MMTV-LUC activity (%) DHT+ (system: AR transcriptional activity) for COC(=O)[C@]12OC[C@]34[C@H]([C@@H](O)[C@@H]1O)[C@@]1(C)C=C(O[C@@H]5O[C@H](CO)[C@@H](O)[C@H](O)[C@H]5O)C(=O)[C@@H](C)[C@@H]1C[C@H]3OC(=O)[C@H](OC(=O)/C=C(\C)C(C)C)[C@@H]24 [Bruceantinoside A]
Ans: 3.8

Q: # returns recorded MMTV-LUC activity (%) DHT+ (system: AR transcriptional activity) for CC[C@](C)(O)C(=O)O[C@H]1C(=O)O[C@@H]2C[C@H]3C(C)=CC(=O)[C@@H](O)[C@]3(C)[C@H]3[C@@]4(O)OC[C@]32[C@@H]1[C@@H](C)[C@H]4O [(+)-Glaucarubinone]
Ans: 117.7

Q: # returns recorded MMTV-LUC activity (%) DHT+ (system: AR transcriptional activity) for CC1=CC(=O)[C@@H](O)[C@]2(C)[C@H]3[C@@H](O)[C@H](O)[C@]4(C)OC[C@@]35[C@@H](C[C@@H]12)OC(=O)[C@H](O)[C@]54O
Ans: 1.1

Q: # returns recorded MMTV-LUC activity (%) DHT+ (system: AR transcriptional activity) for COC(=O)[C@]12OC[C@@]34[C@@H](CC5=C(C)C(=O)C(O)=C[C@]5(C)[C@H]3[C@@H](O)[C@@H]1O)OC(=O)[C@H](OC(=O)CC(C)C)[C@@H]24 [Dehydrobruceine A]
Ans: 164.2
